- System: Wild type
- Protocol text: S. aureus survival, RN4220 and DeltatarO strains – OD600, teichoic acid synthesis inhibitors, primary screen (AID 463173)
- Run parameters: S. aureus RN4220 wild type/DeltatarO growth, OD600, 18 h, active compounds read low, screened at 18.75 µg/mL (by protocol)
Hit rate of the full screen: of about 52,000 compounds, about 1,700 (3.3%) were called active. For the sample, actives were picked, then their nearest neighbours and some compounds at random.
Dear colleague, classification is by survival, with ranges listed here: lower range = under 70%, middle range = from 70% up to 90%, upper range = 90% and over

CC1CCN(S(=O)(=O)c2ccc3c(c2)c(=O)c(C(=O)N2CCN(c4cccc(Cl)c4)CC2)cn3C)CC1	upper range

Query: Hi there! Could you help me figure out the category for CCn1c(COc2ccccc2)nnc1SCC(=O)CC(=O)Nc1ccccc1OC please?
Result: upper range

Query: Hi there! Could you help me figure out the category for CCOc1cc(CNCCSc2nnnn2C)ccc1OCc1ccc(Cl)cc1Cl please?
Result: lower range

* * *

- Tested on: Wild type
- Protocol text: S. aureus survival, RN4220 and DeltatarO strains – OD600, teichoic acid synthesis inhibitors, primary screen (AID 463173)
- Run parameters: S. aureus RN4220 wild type/DeltatarO growth, OD600, 18 h, active compounds read low, screened at 18.75 µg/mL (by protocol)
The campaign covered roughly 52,000 compounds. About 1,700 (3.3%) were called active. What follows is part of a selection rich in actives, with near analogues and random picks from the rest.
survival values, listed per item
Your answer should be a plain number; it is taken to be in %.

COC(=O)C(CCSC)NC(=O)Cn1ncc2c([nH]c3ccccc32)c1=O (stereo unspecified)	47
Cc1cc(OC(C)C(=O)Nc2c(C(=O)c3ccc(F)cc3)oc3ccccc23)ccc1Cl (stereo unspecified)	68
CC(=O)C1=C(c2ccc(Cl)cc2)N(C(C)=O)n2c(nnc2C2CCCCC2)S1	85
CCC(=O)N1CCc2cc(S(=O)(=O)NC(CC(C)C)C(=O)Nc3ccc(CC)cc3)ccc21 (stereo unspecified)	84
CCCCN1C(C(=O)c2ccccc2)=C(OC(C)=O)c2ccccc2S1(=O)=O	-2

Query: // returns reported survival for input COc1cc2c(cc1NC(=O)C(C)Oc1ccc(Cl)cc1Cl)oc1ccccc12 (stereo unspecified)
Result: 49

Query: // returns reported survival for input Cc1cc(C)cc(OC(C)C(=O)Nc2c(C(=O)c3ccccc3)oc3ccccc23)c1 (stereo unspecified)
Result: -1

Query: // returns reported survival for input CCCN1C(C(=O)c2ccccc2)=C(OC(=O)C(C)(C)C)c2ccccc2S1(=O)=O
Result: 86

Query: // returns reported survival for input CCCCC(=O)OC1=C(C(=O)c2ccccc2)N(C)S(=O)(=O)c2ccccc21
Result: 108

Query: // returns reported survival for input CCCCCN1C(C(=O)c2ccccc2)=C(OC(=O)CC)c2ccccc2S1(=O)=O
Result: -4

Query: // returns reported survival for input CCOC(=O)c1sc(NC(=O)c2c(-c3ccccc3)c(-c3ccccc3)nn(C)c2=O)nc1C
Result: 71

Query: // returns reported survival for input O=S(=O)(NCc1nc2cccnc2n1Cc1ccccc1Cl)c1ccc2c(c1)CCCC2
Result: 73

Query: // returns reported survival for input Cc1ccccc1CCNC(=O)c1cc2cc(S(=O)(=O)N3CCCCC3)ccc2n1C
Result: -3

Query: // returns reported survival for input COc1cccc(/C=C/c2nc(C#N)c(N3CCCCC3)o2)c1
Result: 67

Query: // returns reported survival for input CC(CNC(=O)c1cc2cc(S(=O)(=O)N3CCCCC3)ccc2n1C)c1ccccc1 (stereo unspecified)
Result: 55

Query: // returns reported survival for input Cn1c(C(=O)NCc2ccc(F)cc2)cc2cc(S(=O)(=O)N3CCCCC3)ccc21
Result: 131
